- assayedSystem: GST-tagged human recombinant active B-Raf (Δ1-415) (Homo sapiens, UniProt P15056)
- Construct: GST; purchased Upstate/Millipore
- Sequence (P15056 416-766, stated change not applied): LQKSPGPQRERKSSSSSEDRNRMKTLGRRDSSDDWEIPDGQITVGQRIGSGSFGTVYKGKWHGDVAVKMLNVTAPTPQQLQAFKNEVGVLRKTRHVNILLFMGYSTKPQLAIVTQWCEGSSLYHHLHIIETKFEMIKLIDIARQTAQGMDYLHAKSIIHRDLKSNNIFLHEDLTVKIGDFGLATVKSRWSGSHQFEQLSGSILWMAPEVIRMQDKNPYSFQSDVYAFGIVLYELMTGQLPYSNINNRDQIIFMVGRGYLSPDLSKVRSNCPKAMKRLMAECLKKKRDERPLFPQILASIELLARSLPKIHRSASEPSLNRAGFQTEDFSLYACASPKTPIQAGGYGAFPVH
- methodSummary: B-Raf kinase activity, IMAP coupled assay (B-Raf/MEK1/ERK2, fluorescence polarization)
- Assay type: biochemical
- measurementParameters: bounds also given as pIC50 (>6, >7, >8); 60 min pre-incubation with compound, ATP 50 μM; read-out: IC50, B-Raf IMAP assay
endpointName: IC50

{"compound": "Cc1ccc(NC(=O)c2cccc(C(C)(C)C#N)c2)cc1NC(=O)c1cc2nc(NC(C)C)cnc2s1 [Example 16]", "reading": "< 100 nM"}

Any idea what IC50 was measured for Cc1ccc(NC(=O)c2cc(C(C)(C)C)n[nH]2)cc1NC(=O)c1cc2nccnc2s1 [Example 30] ? < 100 nM

Next compound up: Cc1ccc(NC(=O)c2cccc(C(C)(C)C#N)c2)cc1NC(=O)c1cc2ncc(NCCN3CCOCC3)nc2s1 [Example 63] < 10 nM

Again, but for Cc1cnc2sc(C(=O)Nc3cc(NC(=O)c4cccc(C(C)(C)C#N)c4)ccc3C)cc2n1 [Example 24] < 10 nM

Now the compound Cc1ccc(NC(=O)c2cccc(C(C)(C)C#N)c2)cc1NC(=O)c1sc2ncc(N3CCOCC3)nc2c1N [Example 9] < 10 nM

What do you have for Cc1ccc(NC(=O)c2ccc(F)c(C(F)(F)F)c2)cc1NC(=O)c1cc2nccnc2s1 [Example 37] ? < 100 nM

Param item: Cc1ccc(NC(=O)c2cccc(C(C)(C)C#N)c2)cc1NC(=O)c1sc2nccnc2c1Br [Example 41] < 10 nM

Also, CC(C)(C#N)c1cccc(C(=O)Nc2cc(NC(=O)c3cc4nccnc4s3)c(F)cc2F)c1 [Example 55] please. < 100 nM

###

The following compounds are shown together with reported pIC50 values.
- assayedSystem: GST-tagged human recombinant active B-Raf (Δ1-415) (Homo sapiens)
- Construct: GST; purchased Upstate/Millipore
- methodSummary: B-Raf kinase activity, IMAP coupled assay (B-Raf/MEK1/ERK2, fluorescence polarization)
- Assay type: biochemical
- measurementParameters: bounds also given as pIC50 (>6, >7, >8); 60 min pre-incubation with compound, ATP 50 μM; read-out: IC50, B-Raf IMAP assay
- Protocol: In another assay the B-Raf kinase activity can be determined by using an IMAP assay (Immobilized Metal Assay for Phosphochemicals-based coupled assay). IMAP is a homogeneous fluorescence polarization (FP) assay based on affinity capture of phosphorylated peptide substrates. […] Inhibition of B-Raf kinase activity was measured using an Immobilized Metal Assay for Phosphochemicals-based coupled assay (IMAP). […]
pIC50: −log10 of the molar value.

Find the recorded pIC50 belonging to CC(C)(C#N)c1cccc(C(=O)Nc2ccc(Br)c(NC(=O)c3cc4nccnc4s3)c2)c1 and report it. > 7.00

What about this compound? Cc1ccc(NC(=O)Nc2cccc(C(C)(C)C#N)c2)cc1NC(=O)c1cc2nccnc2s1 > 7.00

Would you mind doing Cc1ccc(NC(=O)c2cccc(C(C)(C)C#N)c2)cc1NC(=O)c1cc2nccnc2s1 as well? > 8.00

###

- assayedSystem: GST-tagged human recombinant active B-Raf (Δ1-415) (Homo sapiens)
- Construct: GST; purchased Upstate/Millipore
- methodSummary: B-Raf kinase activity, IMAP coupled assay (B-Raf/MEK1/ERK2, fluorescence polarization)
- Assay type: biochemical
- measurementParameters: bounds also given as pIC50 (>6, >7, >8); 60 min pre-incubation with compound, ATP 50 μM; read-out: IC50, B-Raf IMAP assay
pIC50: −log10 of the molar value.
endpointName: pIC50

The cases that follow already have their pIC50 on record.
{"mol": "Cc1ccc(NC(=O)c2cccc(C(C)(C)C#N)c2)cc1NC(=O)c1sc2ncc(N3CCN(C)CC3)nc2c1N", "assayedSystem": "GST-tagged human recombinant active B-Raf (Δ1-415) (Homo sapiens)", "pIC50": "> 8.00"}
{"mol": "Cc1ccc(NC(=O)c2cc(F)cc(C(F)(F)F)c2)cc1NC(=O)c1cc2nccnc2s1", "assayedSystem": "GST-tagged human recombinant active B-Raf (Δ1-415) (Homo sapiens)", "pIC50": "> 7.00"}
{"mol": "CNc1c(C(=O)Nc2cc(NC(=O)c3cccc(C(C)(C)C#N)c3)ccc2C)sc2nccnc12", "assayedSystem": "GST-tagged human recombinant active B-Raf (Δ1-415) (Homo sapiens)", "pIC50": "> 8.00"}
{"mol": "Cc1ccc(NC(=O)c2cccc(C(C)(C)C#N)c2)cc1NC(=O)c1cc2ncc(-c3ccncc3)nc2s1", "assayedSystem": "GST-tagged human recombinant active B-Raf (Δ1-415) (Homo sapiens)", "pIC50": "> 8.00"}
{"mol": "Cc1ccc(NC(=O)c2cccc(C(C)(C)C#N)c2)cc1NC(=O)c1sc2ncc(C#N)nc2c1N", "assayedSystem": "GST-tagged human recombinant active B-Raf (Δ1-415) (Homo sapiens)", "pIC50": "> 7.00"}

What measured pIC50 is associated with Cc1ccc(NC(=O)c2cccc(C(C)(C)C#N)c2)cc1NC(=O)c1cc2nc(-c3cccnc3)cnc2s1 on GST-tagged human recombinant active B-Raf (Δ1-415) (Homo sapiens)? > 8.00

What do you have for Cc1ccc(C(=O)Nc2cccc(C(F)(F)F)c2)cc1NC(=O)c1sc2nccnc2c1N ? > 7.00

Same again, this time with Cc1cnc2cc(C(=O)Nc3cc(NC(=O)c4cccc(C(C)(C)C#N)c4)ccc3C)sc2n1 > 7.00
